target: SRC (Homo sapiens); experiment: Inhibition of a panel of kinases, in vitro HotSpot kinase assay: SRC; assay type: biochemical; details: D-compounds panel data; 1 μM ATP
Sequence (P12931 whole entry): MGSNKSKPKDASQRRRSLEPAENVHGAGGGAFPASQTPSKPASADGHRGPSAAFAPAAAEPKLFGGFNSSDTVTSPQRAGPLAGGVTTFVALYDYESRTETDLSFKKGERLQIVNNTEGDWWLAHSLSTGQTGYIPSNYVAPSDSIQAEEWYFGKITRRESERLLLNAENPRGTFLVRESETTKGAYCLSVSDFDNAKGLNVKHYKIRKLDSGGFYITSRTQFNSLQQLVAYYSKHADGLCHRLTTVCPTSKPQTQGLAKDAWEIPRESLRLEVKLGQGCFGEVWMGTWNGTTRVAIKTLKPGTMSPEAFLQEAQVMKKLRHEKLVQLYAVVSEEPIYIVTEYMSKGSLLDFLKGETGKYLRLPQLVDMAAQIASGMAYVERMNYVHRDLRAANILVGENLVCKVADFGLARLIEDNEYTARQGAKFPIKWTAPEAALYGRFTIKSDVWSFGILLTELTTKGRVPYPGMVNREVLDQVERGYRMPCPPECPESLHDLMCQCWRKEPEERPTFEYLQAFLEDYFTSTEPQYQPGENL
readoutType: IC50

C[C@@H]1[C@H](NC(=O)c2ccc(C3(CO)CC3)cc2)CCCN1c1cnc(C(N)=O)c(Nc2cnn(C)c2)n1; 10 to 100 nM
C[C@@H]1[C@H](NC(=O)N(C)C)CCCN1c1cnc(C(N)=O)c(Nc2ccc(N3CCN(C)CC3)cc2)n1; 10 to 100 nM
C[C@@H]1[C@H](NC(=O)c2ccc(N(C)C)cc2)CCCN1c1cnc(C(N)=O)c(Nc2cnn(C)c2)n1; 100 to 1000 nM
C[C@@H]1[C@H](NC(=O)c2ccc(C3CC3)cc2)CCCN1c1cnc(C(N)=O)c(Nc2cnn(CC(C)(C)O)c2)n1; 100 to 1000 nM
C[C@@H]1[C@H](NC(=O)c2ccc(C3CC3)cc2F)CCCN1c1cnc(C(N)=O)c(Nc2cc(CN(C)C)ns2)n1; 10 to 100 nM
C[C@@H]1[C@H](NC(=O)c2ccc(C3CC3)cc2)CCCN1c1cnc(C(N)=O)c(Nc2cnc(N3CCN(C)CC3)nc2)n1; 100 to 1000 nM
C[C@@H]1[C@H](NC(=O)c2ccc(C3CC3)cc2)CCCN1c1cnc(C(N)=O)c(Nc2cc(C3CCN(C)CC3)ns2)n1; ≤ 10 nM
C[C@@H]1[C@H](NC(=O)c2ccc(C3CC3)cc2)CCCN1c1cnc(C(N)=O)c(Nc2cnn(C3CCN(CC(F)(F)F)CC3)c2)n1; 10 to 100 nM

Tell me the measured IC50 of `NC(=O)c1ncc(N2CCC[C@@H](n3ccc4cc(C5CC5)ccc4c3=O)C2)nc1Nc1ccc2ncccc2c1` , please. > 10000 nM

Tell me the measured IC50 of `C[C@@H]1[C@H](NC(=O)N(C)C)CCCN1c1cnc(C(N)=O)c(Nc2cc(C3CCOCC3)ns2)n1` , please. 10 to 100 nM

Tell me the measured IC50 of `C[C@@H]1[C@H](NC(=O)c2ccc(C3CC3)nc2)CCCN1c1cnc(C(N)=O)c(Nc2ccc(N3CCC(F)(F)CC3)cc2)n1` , please. 10 to 100 nM

Tell me the measured IC50 of `C[C@@H]1[C@H](NC(=O)c2ccc(C3CC3)cc2F)CCCN1c1cnc(C(N)=O)c(Nc2ccc(N3CCN(C)C[C@@H]3C)cc2)n1` , please. 100 to 1000 nM

Values compiled from patent US20210070748A1.
